experiment: Cytotoxicity (CC50) in Vero cells, TAACF; conditions: African green monkey

compound: CC[n+]1c(/C=C/N(C)c2ccccc2)n(-c2ccccc2)c2ccc(-c3nc4ccccc4s3)cc21 [Compound 8, Zantrin Z2]
CC50, µM: 3.49

* * *

molecule: CCN(CC)CCNC(=O)CC1=C(C)/C(=C/c2ccc(SC)cc2)c2ccc(F)cc21
melting point: 98 to 100 °C
//
molecule: COC(=O)[C@H](C)NC(=O)CC1=C(C)/C(=C/c2ccc(SC)cc2)c2ccc(F)cc21
melting point: 151 to 154 °C
//
molecule: CSc1ccc(/C=C2/C(C)=C(CC(=O)NCc3ccc(N(C)C)cc3)c3cc(F)ccc32)cc1
melting point: 174 to 177 °C
//
molecule: CSc1ccc(/C=C2/C(C)=C(CC(=O)NCc3ccco3)c3cc(F)ccc32)cc1
melting point: 166 to 168 °C
//
molecule: CSc1ccc(/C=C2/C(C)=C(C(C)C(=O)N3CCN(CCCN(C)C)CC3)c3cc(F)ccc32)cc1 (centres unmarked)
melting point: 78 to 80 °C
//
molecule: CSc1ccc(/C=C2/C(C)=C(CC(=O)NCCN3CCCCC3)c3cc(F)ccc32)cc1
melting point: 130 to 133 °C
//
molecule: CSc1ccc(/C=C2/C(C)=C(CC(=O)NCCN3CCCC3)c3cc(F)ccc32)cc1
melting point: 106 to 108 °C
//
molecule: CSc1ccc(/C=C2/C(C)=C(C(C)C(=O)N3CCC[C@H]3CN3CCCC3)c3cc(F)ccc32)cc1 (some centres unmarked)
melting point: 80 to 82 °C

* * *

Measured melting point by item

compound: CCCCN(CCCC)CCCNC(=O)C(C)C1=C(C)/C(=C/c2ccc(SC)cc2)c2ccc(F)cc21 (stereo not shown)
melting point: 121 to 124 °C
--
compound: CCN(CC)CCCNC(=O)CC1=C(C)/C(=C/c2ccc(SC)cc2)c2ccc(F)cc21
melting point: 78 to 81 °C
--
compound: CCN(CC)CCNC(=O)CC1=C(C)/C(=C/c2nc3ccccc3s2)c2ccc(F)cc21
melting point: 127 to 130 °C
--
compound: CCN(CC)CCNC(=O)C(C)C1=C(C)/C(=C/c2ccc(SC)cc2)c2ccc(F)cc21 (stereo not shown)
melting point: 75 to 77 °C
--
compound: CCN1CCC[C@H]1CNC(=O)CC1=C(C)/C(=C/c2nc3ccccc3s2)c2ccc(F)cc21
melting point: 168 to 171 °C
--
compound: CCN1CCC[C@H]1CNC(=O)CC1=C(C)/C(=C/c2ccc(SC)cc2)c2ccc(F)cc21
melting point: 74 to 76 °C
--
compound: CSc1ccc(/C=C2/C(C)=C(C(C)C(=O)N(C)CCN(C)C(=O)[C@@H](N)C(C)C)c3cc(F)ccc32)cc1 (stereo partly shown)
melting point: 60 to 62 °C

* * *

target: UniProt P9WN95; experiment: biochemical; type: biochemical; conditions: mean ± standard deviation, at least three times per assay; NA = not active up to 100 μM; read-out: Mtb FtsZ Polymerization IC50
Measured IC50 by item

compound.structure.string: CSc1ccc(/C=C2/C(C)=C(CC(=O)NCCN3CCCCC3)c3cc(F)ccc32)cc1
target.of.assay: UniProt P9WN95
IC50: 26.5 µM

compound.structure.string: COc1cc(/C=C2\C=C(CC(=O)NCCN(C)C)c3cc(F)ccc32)cc(OC)c1OC
target.of.assay: UniProt P9WN95
IC50: 43.3 µM

compound.structure.string: Nc1nonc1C(=O)N/N=C/c1cc(Cl)cc(Cl)c1O
target.of.assay: UniProt P9WN95
IC50: 33.4 µM

compound.structure.string: CC(C)c1c(O)ccc2c1CC[C@H]1C(C)(C)CCC[C@]21C
target.of.assay: UniProt P9WN95
IC50: 47.5 µM

* * *

Measured IC50 by item
molecular target: UniProt:P9WN95; test: biochemical; assay type: biochemical; conditions: mean ± standard deviation, at least three times per assay; NA = not active up to 100 μM; read-out: Mtb FtsZ Polymerization IC50

compound: COc1cc2c(cc1O)CC[n+]1cc3cc(OC)c(OC)cc3cc1-2 [Compound 9, Pseudojatrorrhizine]
target.of.assay: UniProt:P9WN95
units.text: µM
IC50: 105

compound: COc1cc(/C=C(\C#N)C(N)=O)cc(CSc2nc3ccccc3s2)c1O [Compound 15, AG-825]
target.of.assay: UniProt:P9WN95
units.text: µM
IC50: 31.7

compound: CC[n+]1c(/C=C/N(C)c2ccccc2)n(-c2ccccc2)c2ccc(-c3nc4ccccc4s3)cc21 [Compound 8, Zantrin Z2]
target.of.assay: UniProt:P9WN95
units.text: µM
IC50: 3.5

* * *

biological target: Mtb FtsZ (Mycobacterium tuberculosis, UniProt P9WN95); experiment: biochemical; assay type: biochemical
Sequence (P9WN95 whole entry): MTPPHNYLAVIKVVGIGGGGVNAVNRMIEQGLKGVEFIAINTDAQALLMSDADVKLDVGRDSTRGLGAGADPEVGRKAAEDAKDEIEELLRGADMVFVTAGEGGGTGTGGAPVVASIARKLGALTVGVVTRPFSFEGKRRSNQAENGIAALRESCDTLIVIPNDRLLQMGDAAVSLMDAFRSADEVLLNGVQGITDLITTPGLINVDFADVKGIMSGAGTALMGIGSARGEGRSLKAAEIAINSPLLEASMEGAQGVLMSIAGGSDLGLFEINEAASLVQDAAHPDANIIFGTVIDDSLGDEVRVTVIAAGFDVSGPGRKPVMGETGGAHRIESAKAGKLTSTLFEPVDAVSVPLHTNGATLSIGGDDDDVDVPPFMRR
So basically, if IC50 comes in under 40 µM it's rule met, and if it's 40 µM or more it's rule not met.

compound: O=c1c(O)c(-c2ccc(O)c(O)c2)oc2cc(O)cc(O)c12 [Compound 3, Quercetin dihydrate]
target.of.assay: Mtb FtsZ (Mycobacterium tuberculosis, UniProt P9WN95)
class.label: rule met
--
compound: O=c1c(O)c(-c2cc(O)c(O)c(O)c2)oc2cc(O)cc(O)c12
target.of.assay: Mtb FtsZ (Mycobacterium tuberculosis, UniProt P9WN95)
class.label: rule not met
--
compound: O=C(O)c1cc(O)c2c(c1)C(=O)c1cccc(O)c1C2=O
target.of.assay: Mtb FtsZ (Mycobacterium tuberculosis, UniProt P9WN95)
class.label: rule not met
--
compound: CN(C)c1ccc(O)c2c1C[C@H]1C[C@H]3[C@H](N(C)C)C(O)=C(C(N)=O)C(=O)[C@@]3(O)C(O)=C1C2=O
target.of.assay: Mtb FtsZ (Mycobacterium tuberculosis, UniProt P9WN95)
class.label: rule met
--
compound: CN(C)[C@@H]1C(O)=C(C(N)=O)C(=O)[C@@]2(O)C(O)=C3C(=O)c4c(O)cccc4[C@@](C)(O)[C@H]3C[C@@H]12
target.of.assay: Mtb FtsZ (Mycobacterium tuberculosis, UniProt P9WN95)
class.label: rule not met
--
compound: C[n+]1cc2c3c(ccc2c2ccc4cc5c(cc4c21)OCO5)OCO3
target.of.assay: Mtb FtsZ (Mycobacterium tuberculosis, UniProt P9WN95)
class.label: rule met

* * *

Measured melting point by item

compound: CC1=C(CC(=O)NCCN(C)C)c2cc(F)ccc2/C1=C\c1nc2ccccc2s1 [Compound 38]
melting point: 132 to 135 °C
--
compound: CSc1ccc(/C=C2/C(C)=C(CC(=O)NCCCN3CCCCC3C)c3cc(F)ccc32)cc1 (centres unmarked) [Compound 25]
melting point: 84 to 86 °C
--
compound: CSc1ccc(/C=C2/C(C)=C(CC(=O)N3CCN(CCCN(C)C)CC3)c3cc(F)ccc32)cc1 [Compound 31]
melting point: 131 to 134 °C
--
compound: CSc1ccc(/C=C2/C(C)=C(CC(=O)NCCCn3ccnc3)c3cc(F)ccc32)cc1 [Compound 33]
melting point: 103 to 105 °C
--
compound: CC1=C(CC(=O)N(C)CCN(C)C)c2cc(F)ccc2/C1=C\c1nc2ccccc2s1 [Compound 39]
melting point: 103 to 106 °C
--
compound: CSc1ccc(/C=C2/C(C)=C(CC(=O)N3CCN(c4ccncc4)CC3)c3cc(F)ccc32)cc1 [Compound 32]
melting point: 171 to 174 °C
--
compound: CC1=C(CC(=O)N2CCC[C@H]2CN2CCCC2)c2cc(F)ccc2/C1=C\c1nc2ccccc2s1 [Compound 43]
melting point: 79 to 81 °C
--
compound: CSc1ccc(/C=C2/C(C)=C(CC(=O)NCc3ccccc3)c3cc(F)ccc32)cc1 [Compound 34]
melting point: 171 to 174 °C

* * *

biological target: Mtb FtsZ (Mycobacterium tuberculosis); assay: biochemical; type: biochemical; conditions: mean ± standard deviation, at least three times per assay; NA = not active up to 100 μM; read-out: Mtb FtsZ Polymerization IC50
pIC50: −log10 of the molar value.

compound: CNCCN(C)C(=O)CC1=C(C)/C(=C/c2ccc(SC)cc2)c2ccc(F)cc21
pIC50: 4.46

compound: CSc1ccc(/C=C2/C(C)=C(CC(=O)NCCN(C)C)c3cc(F)ccc32)cc1
pIC50: 4.40

compound: COc1cc(/C=C2\C=C(CC(=O)NCCN3CCCC3)c3cc(F)ccc32)cc(OC)c1OC
pIC50: 4.42

compound: CSc1ccc(/C=C2/C(C)=C(CC(=O)NCc3ccc(N(C)C)cc3)c3cc(F)ccc32)cc1
pIC50: 4.64

compound: CSc1ccc(/C=C2/C(C)=C(CC(=O)N(C)CCN(C)C)c3cc(F)ccc32)cc1
pIC50: 4.37

compound: CSc1ccc(/C=C2\C(C)=C(CC(=O)NCCN(C)C)c3cc(F)ccc32)cc1
pIC50: 4.35

compound: CSc1ccc(/C=C2/C(C)=C(CC(=O)NCCN3CCCC3)c3cc(F)ccc32)cc1
pIC50: 4.47

compound: CSc1ccc(/C=C2/C(C)=C(CC(=O)N(C)CCN(C)C(=O)C(N)C(C)C)c3cc(F)ccc32)cc1 (centres unmarked)
pIC50: 4.42
